Measured Ki, listed per entry.
molecular target: glucocorticoid receptors (Homo sapiens); assay: GR functional assay using SW1353/MMTV-5 cells (dexamethasone-induced luciferase); type: cell-based; parameters: contains endogenous glucocorticoid receptors; endogenous in cells; host or cells: SW1353/MMTV-5 (human chondrosarcoma, stably carrying the pMAMneo-Luc reporter); conditions: read-out: GR Functional

{"columns": ["Molecule", "Tgt", "Ki"],
 "data": [
  ["COCCOC[C@]12Cc3cnn(-c4ccc(F)cc4)c3C=C1CCN(S(=O)(=O)c1ccc(C(C)(C)C)cc1)C2", "glucocorticoid receptors (Homo sapiens)", "< 0.01 µM"],
  ["CC(C)(C)c1ccc(S(=O)(=O)N2CCC3=Cc4[nH]ncc4CC3(Cc3ccccc3)C2)cc1 (centres unmarked) [drawing 245]", "glucocorticoid receptors (Homo sapiens)", "0.01 to 0.1 µM"],
  ["CC(C)(C)c1ccc(S(=O)(=O)N2CCC3=Cc4c(cnn4-c4ccc(F)cc4)C[C@]3(CCN3CCCC3)C2)cc1", "glucocorticoid receptors (Homo sapiens)", "0.01 to 0.1 µM"],
  ["CN(C)C(=O)CN1CCC2=Cc3c(cnn3-c3ccc(F)cc3)CC2(Cc2ccccc2)C1 (centres unmarked)", "glucocorticoid receptors (Homo sapiens)", "> 0.1 µM"],
  ["O=S(=O)(c1ccc(N2CCOCC2)cc1)N1CCC2=Cc3[nH]ncc3CC2(Cc2ccccc2)C1 (centres unmarked) [drawing 246]", "glucocorticoid receptors (Homo sapiens)", "> 0.1 µM"],
  ["CN(C)C[C@]12Cc3cnn(-c4ccc(F)cc4)c3C=C1CCN(S(=O)(=O)c1ccc(F)cc1)C2", "glucocorticoid receptors (Homo sapiens)", "0.01 to 0.1 µM"],
  ["COC(=O)[C@]12Cc3cnn(C(C)C)c3C=C1CCN(S(=O)(=O)c1ccc(C(C)(C)C)cc1)C2", "glucocorticoid receptors (Homo sapiens)", "> 0.1 µM"],
  ["CN1CCN(S(=O)(=O)N2CCC3=Cc4c(cnn4-c4ccc(F)cc4)CC3(Cc3ccc(F)cc3)C2)CC1 (centres unmarked)", "glucocorticoid receptors (Homo sapiens)", "> 0.1 µM"],
  ["COCCCOC[C@]12Cc3cnn(-c4ccc(F)cc4)c3C=C1CCN(S(=O)(=O)c1ccc(C(C)(C)C)cc1)C2", "glucocorticoid receptors (Homo sapiens)", "< 0.01 µM"],
  ["Fc1ccc(-n2ncc3c2C=C2CCN(Cc4ccncc4)CC2(Cc2ccccc2)C3)cc1 (centres unmarked)", "glucocorticoid receptors (Homo sapiens)", "> 0.1 µM"],
  ["O=S(=O)(c1ccccc1)N1CCC2=Cc3c(cnn3-c3ccc(F)cc3)C[C@]2(CN2CCCC2)C1", "glucocorticoid receptors (Homo sapiens)", "< 0.01 µM"],
  ["CCN(CC)C[C@]12Cc3cnn(-c4ccc(F)cc4)c3C=C1CCN(S(=O)(=O)c1ccccc1)C2", "glucocorticoid receptors (Homo sapiens)", "0.01 to 0.1 µM"],
  ["Cn1cc2c(n1)C=C1CCN(S(=O)(=O)c3ccc(C(C)(C)C)cc3)CC1(Cc1ccccc1)C2 (centres unmarked) [drawing 232]", "glucocorticoid receptors (Homo sapiens)", "> 0.1 µM"],
  ["N#Cc1ccc(S(=O)(=O)N2CCC3=Cc4c(cnn4-c4ccc(F)cc4)C[C@]3(CN3CCOCC3)C2)cc1", "glucocorticoid receptors (Homo sapiens)", "> 0.1 µM"]
]}

----------
Target: glucocorticoid receptors (Homo sapiens, UniProt P04150)
Sequence (P04150 1-777): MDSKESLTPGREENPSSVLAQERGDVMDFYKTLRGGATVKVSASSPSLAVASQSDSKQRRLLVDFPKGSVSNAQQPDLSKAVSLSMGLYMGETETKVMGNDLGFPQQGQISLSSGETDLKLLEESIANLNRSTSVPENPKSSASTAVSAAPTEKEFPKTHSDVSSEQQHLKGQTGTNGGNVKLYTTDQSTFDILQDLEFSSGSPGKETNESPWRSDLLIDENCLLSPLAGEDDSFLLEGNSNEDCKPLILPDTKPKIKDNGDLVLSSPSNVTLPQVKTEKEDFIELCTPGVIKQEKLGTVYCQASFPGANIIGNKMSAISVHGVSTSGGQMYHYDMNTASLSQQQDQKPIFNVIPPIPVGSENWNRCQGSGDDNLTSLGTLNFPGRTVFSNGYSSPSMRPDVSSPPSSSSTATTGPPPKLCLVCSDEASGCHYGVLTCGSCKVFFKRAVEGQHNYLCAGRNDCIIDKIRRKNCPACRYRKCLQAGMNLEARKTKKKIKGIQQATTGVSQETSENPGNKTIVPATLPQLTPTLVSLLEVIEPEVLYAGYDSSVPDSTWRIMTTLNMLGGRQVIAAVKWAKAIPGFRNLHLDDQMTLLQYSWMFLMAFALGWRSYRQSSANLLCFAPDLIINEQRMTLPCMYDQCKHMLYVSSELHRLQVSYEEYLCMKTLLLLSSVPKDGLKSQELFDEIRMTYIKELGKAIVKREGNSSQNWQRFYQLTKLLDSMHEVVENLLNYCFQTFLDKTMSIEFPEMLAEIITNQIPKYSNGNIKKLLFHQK
Assay: GR functional assay using SW1353/MMTV-5 cells (dexamethasone-induced luciferase)
Type: cell-based
Set-up: contains endogenous glucocorticoid receptors; endogenous in cells; host or cells: SW1353/MMTV-5 (human chondrosarcoma, stably carrying the pMAMneo-Luc reporter)
Conditions: read-out: GR Functional
pKi: −log10 of the molar value.

{"columns": ["Molecule", "pKi"],
 "data": [
  ["CC(C)(C)c1ccc(S(=O)(=O)N2CC[C@H]3Cc4c(cnn4-c4ccc(F)cc4)C[C@]3(CN3CCOCC3)C2)cc1", "7.00 to 8.00"],
  ["CC(C)(C)c1ccc(S(=O)(=O)N2CCC3=Cc4c(cnn4Cc4ccccc4)CC3(Cc3ccccc3)C2)cc1 (stereo not drawn) [drawing 237]", "< 7.00"],
  ["Cc1ccccc1S(=O)(=O)N1CCC2=Cc3c(cnn3-c3ccc(F)cc3)C[C@]2(CN2CCOCC2)C1", "7.00 to 8.00"],
  ["COCCOC[C@]12Cc3cnn(-c4ccc(F)cc4)c3C[C@@H]1CCN(S(=O)(=O)c1ccc(C(C)(C)C)cc1)C2", "> 8.00"],
  ["CC(C)(C)c1ccc(S(=O)(=O)N2CCC3=Cc4c(cnn4-c4ccc(F)cc4)C[C@]3(C(O)c3ccccc3)C2)cc1 (stereo partly drawn)", "< 7.00"],
  ["CC(C)(C)c1ccc(CN2CCC3=Cc4c(cnn4-c4ccc(F)cc4)CC3(Cc3ccc(F)cc3)C2)cn1 (stereo not drawn)", "< 7.00"],
  ["COC[C@]12Cc3cnn(-c4ccc(F)cc4)c3C[C@@H]1CCN(S(=O)(=O)c1ccccc1)C2", "< 7.00"],
  ["CC(C)n1ncc2c1C=C1CCN(S(=O)(=O)c3ccc(C(C)(C)C)cc3)C[C@@]1(CN1CCCCC1)C2", "7.00 to 8.00"],
  ["CC(C)(C)c1ccc(S(=O)(=O)N2CCC3=Cc4c(cnn4-c4ccc(F)cc4)C[C@]3(COCCN3CCOCC3)C2)cc1", "< 7.00"],
  ["Cc1ccc(-n2ncc3c2C=C2CCN(S(=O)(=O)c4ccc(C(C)(C)C)cc4)C[C@@]2(Cc2ccccc2)C3)cc1", "< 7.00"],
  ["CC(C)(C)c1ccc(S(=O)(=O)N2CCC3=Cc4c(cnn4-c4ccc(S(N)(=O)=O)cc4)CC3(Cc3ccccc3)C2)cc1 (stereo not drawn) [drawing 240]", "< 7.00"],
  ["CCCCn1ncc2c1C=C1CCN(S(=O)(=O)c3ccc(C)cc3)C[C@@]1(C(=O)OC)C2", "< 7.00"],
  ["Cc1ccc(S(=O)(=O)N2CCC3=Cc4c(cnn4-c4ccc(F)cc4)CC3(Cc3ccc(F)cc3)C2)cc1 (stereo not drawn)", "7.00 to 8.00"],
  ["C[C@]12Cc3cnn(-c4ccc(F)cc4)c3C=C1CCN(S(=O)(=O)N1CCCCC1)C2", "< 7.00"],
  ["CC(C)(C)c1ccc(S(=O)(=O)N2CCC3=Cc4c(cnn4-c4ccc(F)cc4)C[C@]3(C(=O)c3ccccc3)C2)cc1", "> 8.00"],
  ["CC(C)(C)c1ccc(S(=O)(=O)N2CCC3=Cc4c(cnn4-c4ccc(F)cc4)C[C@]3(COCCC#N)C2)cc1", "> 8.00"],
  ["CC(C)(C)c1ccc(S(=O)(=O)N2CC[C@H]3Cc4c(cnn4-c4ccc(F)cc4)C[C@]3(CO)C2)cc1", "< 7.00"],
  ["CN1CCOc2cc(S(=O)(=O)N3CCC4=Cc5c(cnn5-c5ccc(F)cc5)CC4(Cc4ccc(F)cc4)C3)ccc21 (stereo not drawn)", "> 8.00"],
  ["CN(CCO)C[C@]12Cc3cnn(-c4ccc(F)cc4)c3C=C1CCN(S(=O)(=O)c1ccc(C(C)(C)C)cc1)C2", "> 8.00"],
  ["C[C@]12Cc3cnn(-c4ccc(F)cc4)c3C=C1CCN(S(=O)(=O)c1ccc(N)cc1)C2", "< 7.00"],
  ["COC[C@]12Cc3cnn(-c4ccc(F)cc4)c3C[C@@H]1CCN(S(=O)(=O)c1ccc(C(C)(C)C)cc1)C2", "< 7.00"]
]}
